Tested on: Saccharomyces cerevisiae
Test Method Notes: protein stability index of tFT-peptide fusion (C-terminal peptide) (PSI (0-1 scale)); higher = more stable (slower turnover);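 note: PSI is a weighted mean of sequencing reads over stability bins, variants kept only with over 10 reads, mCherry proximal and sfGFP distal, peptide attached via GGGS linker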
Run Parameters: genetic background: wild type; temperature: 30 C
Property: protein stability index

GICDAVLFTMLV    0.682
RKYGWSGIGCRA    0.659
FACAGPAAFHSL    0.597
RETGTSVEQVRT    0.68
KTRRHDQKMEKI    0.659
VFMWRIRRRLVR    0.598
RGGERAGETAGQ    0.695
IKTKKKKENKRR    0.723
GGGGGKAGSHLG    0.632
DHCRTQHLGLEM    0.725
DPRHDNRYPRVR    0.617
VVVGQGPLRGGA    0.714
RSDIANWFLCLS    0.798
PPPPPPVPSRPL    0.644
IGLISTQYYWSL    0.621
PGGRTVLCGTVT    0.651
GSSGGVWPDLNY    0.701
SLPPLDTPPSSC    0.73
RGKRGRRGDEAG    0.712
FPPLLFPPTPTR    0.842
FIGVLVYICREG    0.329
CCLGCFLKHGIV    0.652
HPPRVLHGVPSG    0.629
RKKHSHKKAKKK    0.702
KATIRRGGKKEK    0.682
ARRGAGGGHKGD    0.673
ASSRPQRKSGKR    0.77
GAGGVGGTSGGK    0.675
PSSLPPLSAPSS    0.683
RAPDFYPTHPLA    0.701
PRAPPPSPPPRP    0.651
RGPGSNGSLPWF    0.689
PLPSLPPSLAPW    0.692
FCCLIGYIWYGW    0.488
LFFRFGRWFLGF    0.671
SELLVHVVFWLA    0.247
PHYLPHAPHGAL    0.704
YRDSLLATNFFS    0.694
SLQPRRGQPVTG    0.711
TVERLGSRRGMA    0.712
NDKPKTTQKRTP    0.718

----------
Below is a list of entries, each paired with its recorded protein stability index value.
Tested on: Saccharomyces cerevisiae
Test Method Notes: protein stability index of tFT-peptide fusion (C-terminal peptide) (PSI (0-1 scale)); higher = more stable (slower turnover)
Run Parameters: genetic background: das1 deletion; temperature: 30 C
Property: protein stability index

LCCTLFFCYSYH    0.418
GYSMPVSFFFAL    0.616
YYQVSQKIQRKQ    0.639
VIFFEFFLSFGE    0.281
GVQFSVKWVKLG    0.616
IRWCLVSVFYVV    0.245
RNDCAYHVLQIV    0.646
LFVSLSFVVFLP    0.26
GGTFWDGLVLVH    0.32
TSRRPFVLVMWL    0.405

----------
The entries below are paired with their reported protein stability index.
Tested on: Saccharomyces cerevisiae
Test Method Notes: protein stability index of tFT-peptide fusion (C-terminal peptide) (PSI (0-1 scale)); higher = more stable (slower turnover)
Run Parameters: genetic background: wild type; temperature: 30 C
Property: protein stability index

EDLFELPNSNFS    0.737
QPYRQAKNQRLP    0.728
LGRRVGWEVSGE    0.687
SGFVQRLHVICN    0.571
SGRVELGVVGGG    0.695
KKKETEKPRKQK    0.677
SPRYLLFSLRSP    0.714
WGDGSGRVWEIS    0.68
VSYRLDMHFLYY    0.606
KNIEKKKQKDTQ    0.645
LVSSLVSSEVYM    0.656
CLLYPPYHFYIH    0.567
PLLLLFLSLFRR    0.63
YSSLLLPPLLLF    0.621
WRSSSFFPAAVG    0.672
VLFLGVRCSCLG    0.533
FITFLVFVGFFL    0.355
AGPGGSGGAGEP    0.68
NRGHWECIRVQR    0.582
LWGLVWGGVWGV    0.439
RYLHFASLLFAS    0.364
LRPTPLPRPSPA    0.691
PHPSPSSPPLLP    0.657
LSGWIRTLLPET    0.674
PLAMRVALFSPP    0.651
LFLSLFLFPSLS    0.57
RRKRQKEGEIRE    0.736
LPPATMFFISAS    0.558
FLLYSSSAIPEH    0.759
FLRISPPPPSPP    0.676
KKKKIIKKKNIK    0.77
TWVPYIIMKRER    0.669
VEDGGSREAGEA    0.627
GLGVCGTGIGGV    0.656
DGVGVPGCGRVG    0.734
GAEKGSVPGGDK    0.654
GFVAGGVCSRPL    0.715
SFGGRMSVPTCC    0.594
FFFLCLPSSFAF    0.614
SGSGVLVGCLGS    0.68
KRRSHRQHSRRR    0.559

----------
The sequences listed here are annotated with their protein stability index.
Tested on: Saccharomyces cerevisiae
Test Method Notes: protein stability index of tFT-peptide fusion (C-terminal peptide) (PSI (0-1 scale)); higher = more stable (slower turnover)
Run Parameters: genetic background: wild type; temperature: 30 C
Property: protein stability index

MGLYSNTRNWGS    0.682
PSAPPLSHPAPW    0.675
GGKWGVAGGGPW    0.738
MVTRSLLLLLHG    0.599
KKYKKIGYRRIP    0.773
VRTLVGQVWETV    0.721
SLSIFTSFLVLF    0.598
FMSMSYDEWAYL    0.721
CSLSRFLGCWGF    0.668
AAPPAYGPPPPP    0.697
NYCVFLSYLLFC    0.301
RCLGSTCRFFTF    0.7
YLCFVVSCGVLR    0.383
GRKRWVRLSLAC    0.563
VGWRWGRGRAVW    0.728
GSSLRRLPASCD    0.676
CRQDWMCFVYLS    0.108
RWGGWGYRGGVP    0.752
RHLSRSVSKVLR    0.629
AAPDSGTPPLAA    0.644
HSWSLLFSPSFP    0.658
LPPPSAPFPLPP    0.743
WGRGGSRGSWGA    0.716
GPVCVVSGVFTV    0.665
PPPPLLRSPLHL    0.731
KKKKKLKERRKI    0.668
HRVVGVTLSVPS    0.71
KSVAKLGHGGSP    0.677
TASLSPSHRFYS    0.669
VFLLSDVCGLGL    0.583
RLGLVVRPCSPP    0.686
TPPSPHPCPSPL    0.797
IPGGRPLLVEVR    0.426
WSWGGLHRELAA    0.744
PPSPPPPLPPPA    0.69
PPSGPTDTQEQG    0.661
SRAIEPSEFSVA    0.715
DTEYVFLYSSQE    0.703
AYVAPRRALMCS    0.421
SAPPLPPPPPPP    0.682
VFAWSLYLRWAW    0.489
GKFVEVVRFWSV    0.721
RVPRYEKIVSSI    0.658
KSRLFCFVYFLL    0.167
GAKSENSLTTVQ    0.673
PQPRDSLFSLGN    0.691
RGRAPLRRPPGP    0.717
PHQPRDGSFHGT    0.653
YYRLLACQRPSR    0.679
DITQSRIHMTNI    0.661
CRRLLIHTALRV    0.582
ASSPPPRISAWL    0.746
LRKARLFLKAKC    0.323
EGYEATYLGVFV    0.706
ESRGLVRRLGTG    0.693
RALPLLPLPRLS    0.66
WFRLRFASGRRS    0.682
PPARTPPGLPRP    0.723
KARMTDQLKSTS    0.672
SESKMRKVEPKM    0.746
WLCWVVWFPGLF    0.244
YNYADVCTNESP    0.7
RGFIFFALWSFC    0.384
TSPPSLLFAMAR    0.693
VCRLLASCFWRL    0.655
FKSVPTLPHPSP    0.67
PKNPRSTNGQLS    0.67
TNGYWVIACKKF    0.672
PPPRTLARSRLP    0.74
RLASPSIISSTL    0.702
RHPTHPVSSLNP    0.777
KPPCFSPTHHCP    0.713
HVLALIFLYIPD    0.416
IEKKNKTKKKRI    0.748
MSRALSVLVVVA    0.312
GSILPSGFLSFA    0.747
KKNRSRKRRNKK    0.713
LPLSLPTPPALD    0.716
STVPSLVAGATF    0.729
VVGSVPVSAFWE    0.746
PLSPPPRPPPSP    0.654
LRSPAILFSFAF    0.602
